Experiment: Permeability of the compound at pH 7.4 after 4 hrs by PAMPA
Format: ADME
Conditions: read-out: permeability
measure: Papp at 4 h (×10⁻⁶ cm/s)

| structure | measure | censoring-operator | measurement |
| --- | --- | --- | --- |
| O=C(O)Cc1ccc(Nc2nc(-c3ccccc3)nc3c2CSC3)cc1 | Papp at 4 h | = | 13.3 |
| O=C(O)Cc1ccc(Nc2nc(-c3ccccc3)nc3c2CS(=O)(=O)C3)cc1 | Papp at 4 h | < | 2 |
| O=C(O)Cc1ccc(Nc2nc(-c3ccccc3)nc3c2S(=O)(=O)CCC3)cc1 | Papp at 4 h | = | 5.8 |
| NC(=O)Cc1ccc(Nc2nc(-c3ccccc3)nc3c2S(=O)(=O)CCC3)cc1 | Papp at 4 h | > | 50 |
| O=C(O)Cc1ccc(Nc2nc(-c3ccccc3)nc3c2SCCC3)cc1 | Papp at 4 h | = | 15.5 |
| O=C(O)Cc1ccc(Nc2nc(-c3ccccc3)nc3c2CCS(=O)(=O)C3)cc1 | Papp at 4 h | < | 2 |

----------
Biological target: UniProt:Q07343
Experiment: Inhibition of human recombinant PDE4B (152 to 564 amino acids) using cAMP as substrate after 30 mins by plate reader analysis
Listed here: items and their measured IC50.

| structure | assayed-target | IC50 (nM) |
| --- | --- | --- |
| O=C(Cc1ccc(Nc2nc(-c3ccccc3)nc3c2S(=O)(=O)CCC3)cc1)Nc1ccccc1 | UniProt:Q07343 | 43 |
| CCCCNC(=O)Cc1ccc(Nc2nc(-c3ccccc3)nc3c2S(=O)(=O)CCC3)cc1 | UniProt:Q07343 | 22 |
| O=C(O)Cc1ccc(Nc2nc(-c3ccccc3)nc3sccc23)cc1 | UniProt:Q07343 | 230 |
| O=C(O)Cc1ccc(Nc2nc(-c3ccccc3)nc3c2SCCC3)cc1 | UniProt:Q07343 | 29 |
| O=C(O)CN1CCN(c2nc(-c3ccccc3)nc3c2CS(=O)(=O)C3)CC1 | UniProt:Q07343 | 5000 |
| O=C(O)Cc1ccc(Nc2nc(-c3ccccc3)nc3c2COC3)cc1 | UniProt:Q07343 | 2200 |

----------
Assay: Octanol-phosphate buffer partition coefficient, log D of the compound at pH 7.4 after 12 hrs by shake flask method
Assay type: physicochemical
Listed here: items and their measured logD at 12 h.

| structure | logD at 12 h |
| --- | --- |
| O=C(O)Cc1ccc(Nc2nc(-c3ccccc3)nc3c2CCS(=O)(=O)C3)cc1 | -0.45 |
| O=C(O)Cc1ccc(Nc2nc(-c3ccccc3)nc3c2S(=O)(=O)CCC3)cc1 | 0.43 |
| O=C(O)Cc1ccc(Nc2nc(-c3ccccc3)nc3c2SCCC3)cc1 | 1.4 |
| O=C(O)Cc1ccc(Nc2nc(-c3ccccc3)nc3c2CS(=O)(=O)C3)cc1 | 0.016 |
| NC(=O)Cc1ccc(Nc2nc(-c3ccccc3)nc3c2S(=O)(=O)CCC3)cc1 | 2.9 |
| O=C(O)Cc1ccc(Nc2nc(-c3ccccc3)nc3c2CSC3)cc1 | 1.3 |

----------
Biological target: 3',5'-cyclic-AMP phosphodiesterase 4B (Homo sapiens)
Sequence (Q07343 whole entry, the tested form may be a part): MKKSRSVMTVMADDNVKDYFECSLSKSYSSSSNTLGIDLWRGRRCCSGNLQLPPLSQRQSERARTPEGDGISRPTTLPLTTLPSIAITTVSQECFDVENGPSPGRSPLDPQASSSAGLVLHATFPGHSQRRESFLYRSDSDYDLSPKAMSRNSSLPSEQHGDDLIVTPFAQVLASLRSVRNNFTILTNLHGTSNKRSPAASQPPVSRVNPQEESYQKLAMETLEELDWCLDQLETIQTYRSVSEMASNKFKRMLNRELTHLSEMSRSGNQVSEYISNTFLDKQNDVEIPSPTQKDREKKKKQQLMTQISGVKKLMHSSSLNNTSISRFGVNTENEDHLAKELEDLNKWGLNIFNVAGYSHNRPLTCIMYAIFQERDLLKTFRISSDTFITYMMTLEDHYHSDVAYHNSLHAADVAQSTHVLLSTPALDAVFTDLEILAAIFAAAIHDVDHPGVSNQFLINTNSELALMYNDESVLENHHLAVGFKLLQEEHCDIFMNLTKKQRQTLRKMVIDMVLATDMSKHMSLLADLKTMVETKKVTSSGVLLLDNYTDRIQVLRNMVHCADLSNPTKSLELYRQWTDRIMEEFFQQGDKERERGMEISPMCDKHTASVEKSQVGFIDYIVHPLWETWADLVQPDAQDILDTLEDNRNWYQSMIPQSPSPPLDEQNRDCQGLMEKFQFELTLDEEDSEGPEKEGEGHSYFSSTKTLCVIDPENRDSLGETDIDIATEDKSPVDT
Experiment: Inhibition of human recombinant PDE4B (152 to 564 amino acids) using cAMP as substrate after 30 mins by plate reader analysis
Response field label takes True when IC50 is strictly below 30 nM and False in all other cases.

| structure | answer-label |
| --- | --- |
| CC(C)(C)CNC(=O)Cc1ccc(Nc2nc(-c3ccccc3)nc3c2S(=O)(=O)CCC3)cc1 | True |
| O=C(O)Cc1ccc(Nc2nc(-c3ccccc3)nc3c2CCCC3)cc1 | False |
| O=C(O)CN1CCC(Nc2nc(-c3ccccc3)nc3c2CS(=O)(=O)C3)CC1 | False |
| O=C(O)Cc1ccc(Nc2nc(-c3ccccc3)nc3c2S(=O)(=O)CC3)cc1 | False |
| O=C(O)CCc1ccc(Nc2nc(-c3ccccc3)nc3c2CS(=O)(=O)C3)cc1 | False |
| O=C(O)Cc1ccc(Nc2nc(-c3ccccc3)nc3c2CCC3)cc1 | False |
| O=C(O)CC1CCN(c2nc(-c3ccccc3)nc3c2CSC3)CC1 | False |
| O=C(O)Cc1ccc(Nc2nc(-c3ccccc3)nc3ccccc23)cc1 | False |
| CNC(=O)Cc1ccc(Nc2nc(-c3ccccc3)nc3c2S(=O)(=O)CCC3)cc1 | True |
| CC(C)(C)NC(=O)Cc1ccc(Nc2nc(-c3ccccc3)nc3c2S(=O)(=O)CCC3)cc1 | True |
| CCCNC(=O)Cc1ccc(Nc2nc(-c3ccccc3)nc3c2S(=O)(=O)CCC3)cc1 | True |
| O=C(O)Cc1ccc(Nc2nc(-c3ccccc3)nc3c2CSC3)cc1 | True |
| O=C(O)Cc1ccc(Nc2nc(-c3ccccc3)nc3c2CCS(=O)(=O)C3)cc1 | True |
| O=C(O)Cc1ccc(Nc2nc(-c3ccccc3)nc3c2S(=O)(=O)CCC3)cc1 | True |
| O=C(O)Cc1cccc(Nc2nc(-c3ccccc3)nc3c2CS(=O)(=O)C3)c1 | False |
| CC(C)CNC(=O)Cc1ccc(Nc2nc(-c3ccccc3)nc3c2S(=O)(=O)CCC3)cc1 | True |
| O=C(O)CC1CCN(c2nc(-c3ccccc3)nc3c2CS(=O)(=O)C3)CC1 | False |
| NC(=O)Cc1ccc(Nc2nc(-c3ccccc3)nc3c2S(=O)(=O)CCC3)cc1 | True |
| O=C(O)Cc1ccc(Nc2nc(-c3ccccc3)nc3c2CS(=O)(=O)C3)cc1 | False |
| O=C(O)Cc1ccc(Nc2nc(-c3ccccc3)nc3c2CS(=O)(=O)CC3)cc1 | False |
| CN(C)C(=O)Cc1ccc(Nc2nc(-c3ccccc3)nc3c2S(=O)(=O)CCC3)cc1 | False |
